Form field: Interferon-α induction (one value per entry).
test system: interferon-α; assay: Interferon-α induction in human cells, PBM; assay type: cell-based; details: dose concentration 0.10 μg/mL, 24 hours

## Task // query Interferon-α induction value for entry `CCCCn1c(COCC)nc2c(N)nc3ccccc3c21`
## Result 340 α Reference Units/mL

## Task // query Interferon-α induction value for entry `COCCn1c(COC)nc2c(N)nc3ccccc3c21`
## Result <4 α Reference Units/mL

## Task // query Interferon-α induction value for entry `CCOCc1nc2c(N)nc3cc(Cl)ccc3c2n1CC(C)(C)O`
## Result 86 α Reference Units/mL

## Task // query Interferon-α induction value for entry `CC(C)Cn1c(CN=[N+]=[N-])nc2c(N)nc3ccccc3c21`
## Result 570 α Reference Units/mL

## Task // query Interferon-α induction value for entry CC(=O)OC(C)c1nc2c(N)nc3ccccc3c2n1CC(C)C.O (stereo not drawn)
## Result 1000 α Reference Units/mL

## Task // query Interferon-α induction value for entry `CSCc1nc2c(N)nc3ccccc3c2n1Cc1ccccc1`
## Result 2500 α Reference Units/mL
